All figures here come from the Human Domainome abundance scans (Beltran et al. 2025).

B1: Chromodomain-helicase-DNA-binding protein 5, residues 338 to 390; numbered along this chain, Q8TDI0 (parent)
chain: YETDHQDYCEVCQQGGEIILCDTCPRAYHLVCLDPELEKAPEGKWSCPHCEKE

Variants of: B1
Assay: abundance fitness (aPCA) (normalised: wild type 0, dead -1); higher = more abundant; growth selection in yeast, the domain comes from the species named
Settings: Homo sapiens
# cutoff -0.2 applies to abundance fitness; >= gives true (1), < gives false (0)

Assess whether reported abundance fitness for G16C sits at -0.2 or higher.
false (0)

Assess whether reported abundance fitness for L33G sits at -0.2 or higher.
false (0)

Assess whether reported abundance fitness for K44F sits at -0.2 or higher.
false (0)

Assess whether reported abundance fitness for V31Y sits at -0.2 or higher.
false (0)

Assess whether reported abundance fitness for V31P sits at -0.2 or higher.
true (1)

Assess whether reported abundance fitness for L33R sits at -0.2 or higher.
false (0)

Assess whether reported abundance fitness for P41N sits at -0.2 or higher.
true (1)

Assess whether reported abundance fitness for E42I sits at -0.2 or higher.
true (1)

Assess whether reported abundance fitness for W45T sits at -0.2 or higher.
false (0)

Assess whether reported abundance fitness for Y28R sits at -0.2 or higher.
true (1)

Assess whether reported abundance fitness for C32P sits at -0.2 or higher.
false (0)

Assess whether reported abundance fitness for A27T sits at -0.2 or higher.
true (1)

Assess whether reported abundance fitness for D34Q sits at -0.2 or higher.
true (1)

Assess whether reported abundance fitness for E36M sits at -0.2 or higher.
true (1)

Assess whether reported abundance fitness for Y28Q sits at -0.2 or higher.
false (0)

Assess whether reported abundance fitness for E51H sits at -0.2 or higher.
false (0)

Assess whether reported abundance fitness for P48E sits at -0.2 or higher.
true (1)

Assess whether reported abundance fitness for L37N sits at -0.2 or higher.
true (1)

Assess whether reported abundance fitness for E36S sits at -0.2 or higher.
true (1)

Assess whether reported abundance fitness for P41G sits at -0.2 or higher.
true (1)

Assess whether reported abundance fitness for W45M sits at -0.2 or higher.
true (1)

Assess whether reported abundance fitness for Y28N sits at -0.2 or higher.
true (1)

Assess whether reported abundance fitness for L33A sits at -0.2 or higher.
true (1)

Assess whether reported abundance fitness for H29L sits at -0.2 or higher.
false (0)

Assess whether reported abundance fitness for R26A sits at -0.2 or higher.
true (1)

Assess whether reported abundance fitness for I19R sits at -0.2 or higher.
true (1)

Assess whether reported abundance fitness for E42G sits at -0.2 or higher.
true (1)

Assess whether reported abundance fitness for I18N sits at -0.2 or higher.
true (1)

Assess whether reported abundance fitness for K52C sits at -0.2 or higher.
false (0)

Assess whether reported abundance fitness for C32K sits at -0.2 or higher.
false (0)

Assess whether reported abundance fitness for E42H sits at -0.2 or higher.
true (1)

Assess whether reported abundance fitness for P35Y sits at -0.2 or higher.
true (1)

Assess whether reported abundance fitness for L20K sits at -0.2 or higher.
true (1)

Assess whether reported abundance fitness for V31S sits at -0.2 or higher.
true (1)

Assess whether reported abundance fitness for S46V sits at -0.2 or higher.
true (1)

Assess whether reported abundance fitness for E38Q sits at -0.2 or higher.
true (1)

Assess whether reported abundance fitness for L37H sits at -0.2 or higher.
true (1)

Assess whether reported abundance fitness for G16V sits at -0.2 or higher.
true (1)

Assess whether reported abundance fitness for E53D sits at -0.2 or higher.
true (1)

Assess whether reported abundance fitness for E38T sits at -0.2 or higher.
false (0)

Assess whether reported abundance fitness for C47D sits at -0.2 or higher.
true (1)

Assess whether reported abundance fitness for R26F sits at -0.2 or higher.
false (0)

Assess whether reported abundance fitness for G43F sits at -0.2 or higher.
true (1)

Assess whether reported abundance fitness for K39Q sits at -0.2 or higher.
false (0)

Assess whether reported abundance fitness for E36N sits at -0.2 or higher.
true (1)

Assess whether reported abundance fitness for P41A sits at -0.2 or higher.
true (1)
